Tested on: NOMO1
assay: cell viability relative to DMSO control; higher = less cytotoxic
measurementSetup: RPMI 5 mM glucose + 10% FBS; 48 h; 0.000781 µM
# Lookup of reported cell viability keyed by entry
# output: bare number, implied unit %

molecule	reportedMetric	assayValue
O=C(c1ccc(F)cc1)C1CCN(CCn2c(=O)[nH]c3ccccc3c2=O)CC1	cell viability	107
C[C@H]1[C@@H](CC(C[C@H]2O[C@@H]3O[C@]4(C)CC[C@H]5[C@H](C)CC[C@@H]([C@H]2C)[C@@]35OO4)C[S+](=O)([O-])c2ccc(COC(=O)N(C)C)cc2)O[C@@H]2O[C@]3(C)CC[C@H]4[C@H](C)CC[C@@H]1[C@@]24OO3	cell viability	114
COc1ccc2cccc(CCNC(C)=O)c2c1	cell viability	90.8
Cn1c(=O)c2c(ncn2CC(O)CO)n(C)c1=O (configuration not stated)	cell viability	119

Exam item: # lookup: cell viability of C[Se]CCC(N)C(=O)O (configuration not stated)
Marked response: 79.9

Exam item: Field request: cell viability | item: "N=C(N)c1ccc(OCCCCCOc2ccc(C(=N)N)cc2)cc1"
Marked response: 100

Exam item: Which cell viability value belongs to "Cc1cnc(Nc2ccc(OCCN3CCCC3)cc2)nc1Nc1cccc([S+](=O)([O-])NC(C)(C)C)c1" ?
Marked response: 105

* * *

Tested on: NOMO1
assay: cell viability relative to DMSO control; higher = less cytotoxic
measurementSetup: HPLM + 10% dialyzed FBS; 48 h; 0.00702 µM
Examples of compounds with documented cell viability follow.
Write the value in % as a bare number.

compound	cell viability / %
C[C@H]1[C@@H](CC(C[C@H]2O[C@@H]3O[C@]4(C)CC[C@H]5[C@H](C)CC[C@@H]([C@H]2C)[C@@]35OO4)C[S+](=O)([O-])c2ccc(COC(=O)N(C)C)cc2)O[C@@H]2O[C@]3(C)CC[C@H]4[C@H](C)CC[C@@H]1[C@@]24OO3	116
Cc1cc(SCc2sc(-c3ccc(C(F)(F)F)c(F)c3)nc2C)ccc1OCC(=O)O	120

Exam item: Reported cell viability for COc1ccc2cc(-c3[nH]c(-c4ccc([S+](C)[O-])cc4)nc3-c3ccncc3)ccc2c1 (stereo not drawn) : what is it?
Marked response: 124

* * *

Test system: SEM cells
assay: cell viability relative to DMSO control; higher = less cytotoxic
measurementSetup: RPMI 5 mM glucose + 10% dialyzed FBS; 48 h; 0.569 µM
reportedMetric: cell viability (%)
Give the number; % is assumed, so skip it.

Sample answers from the record:
In [3]: df
Out[3]:
                                  molecule  systemname  assayvalue
0              CN(C)c1nc(N(C)C)nc(N(C)C)n1   SEM cells         109
1  COc1ccc(CCC(=O)Nc2nc3ccc(Cl)cc3s2)cc1OC   SEM cells         101
2              COc1ccc2cccc(CCNC(C)=O)c2c1   SEM cells        94.7

# input for lookup
Exam item: I have this molecule here, CC(=O)SCC(Cc1ccccc1)C(=O)NCC(=O)OCc1ccccc1 (centres undefined) , and I need its recorded cell viability.
Marked response: 115

* * *

Test system: SEM cells
assay: cell viability relative to DMSO control; higher = less cytotoxic
measurementSetup: RPMI 5 mM glucose + 10% dialyzed FBS; 48 h; 46.1 µM
Decision: cell viability beneath 50% gives 1; cell viability meeting or exceeding 50% gives 0.

Exam item: Please let me know if "c1cc(OCCN2CCCCC2)cc(-c2n[nH]c3ccc(-c4nc[nH]n4)cc23)c1" shows cell viability below 50%.
Marked response: 0

Exam item: cell viability strictly < 50% for this molecule? "c1ccc2c(Oc3nc(Nc4ccc(N5CCOCC5)cc4)c4ncn(C5CCCCC5)c4n3)cccc2c1"
Marked response: 0

Exam item: For "CCOC(=O)c1ncn2c1CN(C)C(=O)c1cc(F)ccc1-2" , is the recorded cell viability below the cut-off of 50%?
Marked response: 1

* * *

System: SEM cells
assay: cell viability relative to DMSO control; higher = less cytotoxic
measurementSetup: HPLM + 10% dialyzed FBS; 48 h; 0.569 µM
reportedMetric: cell viability
Provide the measurement as a number trailed by its unit.

Some entries whose results are on file:
                                   molecule  reportedmetric  assayvalue
0  COC1=CC=C(C=C1)C/2=C/OC3=CC(=CC=C3C2=O)O  cell viability        114%
1   COc1ccc(-c2c(-c3ccc(O)cc3O)n[nH]c2C)cc1  cell viability       88.8%

Alright, here's another compound for you.
Exam item: Given the entry "CCCCc1oc2ccc(NS(C)(=O)=O)cc2c1C(=O)c1ccc(OCCCN(CCCC)CCCC)cc1" , what cell viability was observed with SEM cells?
Marked response: 101%

* * *

Tested on: NOMO1
assay: cell viability relative to DMSO control; higher = less cytotoxic
measurementSetup: HPLM + 10% dialyzed FBS; 48 h; 46.1 µM
reportedMetric: cell viability (%)
Give the number; % is assumed, so skip it.

>>> df
                                   compound  quantityunit  assayvalue
0  CCCn1c(=O)c2[nH]c(C34CC5CC3C[C@@H](C5)C4)nc2n(CCC)c1=O             %         114
1  Cc1cnc(Nc2ccc(OCCN3CCCC3)cc2)nc1Nc1cccc([S+](=O)([O-])NC(C)(C)C)c1             %        84.3
2  CNC(=O)c1cc(Oc2ccc(NC(=O)Nc3cc(C(C)(C)C)nn3-c3ccc4ncccc4c3)c(F)c2)ccn1             %         122
3               COc1ccc2cccc(CCNC(C)=O)c2c1             %          85
4  c1ccc(-c2nn3c(c2-c2ccnc4cc(OCCN5CCOCC5)ccc24)CCC3)nc1             %        70.6

Exam item: Give its cell viability value. Item: Clc1ccc(COC(Cn2ccnc2)c2ccc(Cl)cc2Cl)cc1 (configuration not stated)
Marked response: 93.2

Exam item: Param item = COc1ccc2cc(-c3[nH]c(-c4ccc([S+](C)[O-])cc4)nc3-c3ccncc3)ccc2c1 (configuration not stated) ; retrieve measured cell viability.
Marked response: 111

* * *

Tested on: SEM cells
assay: cell viability relative to DMSO control; higher = less cytotoxic
measurementSetup: RPMI 5 mM glucose + 10% dialyzed FBS; 48 h; 0.00234 µM
reportedMetric: cell viability (%)
Report as a plain number; the unit % is understood.

compound	assayValue
NC12CC3CC(CC(C3)C1)C2	96.5

Exam item: What does the record list as cell viability for "CN(C)c1ccc(C(=O)NCCCCCCC(=O)NO)cc1" ?
Marked response: 111

Exam item: Which cell viability is listed for "NC/1=N/C(=O)N(/C=C1)[C@H]2CC[C@@H](CO)O2" ?
Marked response: 87.4

Exam item: Entry "CN(C)c1nc(N(C)C)nc(N(C)C)n1" : reported cell viability = ?
Marked response: 115

Exam item: # input compound: CC1OC(OC/2=C(/OC3=C(C(=CC(=C3)O)O)C2=O)C4=CC=C(O)C=C4)C(O)C(OC(C)=O)C1OC(C)=O (configuration not stated) ; wanted: its cell viability
Marked response: 101

Exam item: Consider the compound "CN[C@@H](C)C(=O)N[C@H]1CCCC[C@H]2CC[C@@H](C(=O)N[C@@H](c3ccccc3)c3cn(CCCCc4ccc(CCCCn5cc([C@@H](NC(=O)[C@@H]6CC[C@@H]7CCCC[C@H](NC(=O)[C@H](C)NC)C(=O)N76)c6ccccc6)nn5)cc4)nn3)N2C1=O" and give its measured cell viability.
Marked response: 90.5

* * *

The following molecules are shown together with reported cell viability values.
Test system: SEM cells
assay: cell viability relative to DMSO control; higher = less cytotoxic
measurementSetup: RPMI 5 mM glucose + 10% dialyzed FBS; 48 h; 0.19 µM
Hi! Could you send only the number? It should be in %, unit omitted.

Exam item: Fill in the blank: the reported cell viability of "CC(C)[C@@H](N(CCCN)C(=O)C1=CC=C(C)C=C1)C/2=C(\CC3=CC=CC=C3)C(=O)C4=C(O2)C=C(Cl)C=C4" is ____.
Marked response: 26.5

Exam item: I am curious: what cell viability value has been reported for COc1ccc2cc(-c3[nH]c(-c4ccc([S+](C)[O-])cc4)nc3-c3ccncc3)ccc2c1 (configuration not stated) ?
Marked response: 116

Exam item: If you can, please state the reported cell viability value of "C=C1C[C@@]2(O)O[C@@]3(C[C@H]2C(C)C)[C@@H](C)CC[C@@H]13" .
Marked response: 104

Exam item: Can you look up the measured cell viability of C[Se]CCC(N)C(=O)O (configuration not stated) for me?
Marked response: 101
